# Experimental target: Cdk2(R122C) (C177A) (Homo sapiens, UniProt P24941, C177A/R122C)
# Construct: poly-histidine; made in house; host or cells: E. coli
# Test description: Kinetic thiol consumption assay with Cdk2 mutant R122C
# Assay type: binding
# Parameters: key: rate constant with Cdk2 ÷ rate constant with model thiol (fold)
# Condition info: Cdk2 R122C, additional mutation C177A
Measurement type: Rate enhancement, Cdk2 R122C

Solved cases below.
Compound	Experimental target	Rate enhancement, Cdk2 R122C
C=CC(=O)N1CCn2c(C(=O)NC3CC3)ccc2C1C (centres unmarked)	Cdk2(R122C) (C177A) (Homo sapiens, UniProt P24941, C177A/R122C)	0.285
C=CC(=O)N1CCCN2C(=O)CCC12c1ccc(OC)cc1 (centres unmarked)	Cdk2(R122C) (C177A) (Homo sapiens, UniProt P24941, C177A/R122C)	0.3022

1 = C=CC(=O)Nc1cccc(-c2cc3ccccc3[nH]2)c1
2 = C=CC(=O)N1C(=O)CC(c2ccccc2)N(C(=O)C=C)c2ccccc21 (centres unmarked)
3 = C=CC(=O)NCCc1c(-c2ccccn2)[nH]c2ccccc12
4 = C=CS(=O)(=O)c1ccccc1
Hi! Can you put these in order of Rate enhancement, Cdk2 R122C, lowest number first? Field: ranking. Enter the labels in the order requested. 2, 3, 4, 1

I = C=CC(=O)N1CCCCCC1C/C=C/c1ccccc1 (centres unmarked)
II = Cn1cc(S(=O)(=O)N2CCOCC2)cc1C(=O)NC(=O)CCl
Short answer wanted: higher Rate enhancement, Cdk2 R122C, I or II ? Indicate which entry you chose by stating its label. I

I = C=CC(=O)N1CCN(S(C)(=O)=O)CC1c1ccccc1 (centres unmarked)
II = C=CC(=O)N1CCOC2(CCCCC2)C1
III = C=CC(=O)N1CCn2c(Cc3ccccc3)nnc2C1
IV = FC(F)(F)c1cc(Cl)ncc1Br
Sort these compounds on Rate enhancement, Cdk2 R122C so the largest reading comes first. Use the labels to give the requested order. III, II, I, IV

A = C=CC(=O)Nc1ccc(C23CC4CC(CC(O)(C4)C2)C3)cc1
B = C=CC(=O)N1CCC2(CCCCCC2)C1
C = C=CC(=O)Nc1ccc(C(=O)c2ccccc2)cc1
D = C=CC(=O)N1CCC(NC(=O)C2CCC2)C1 (centres unmarked)
E = C=CC(=O)NC(Cc1ccccc1)C(O)CF (centres unmarked)
Write the entries in order, lowest recorded Rate enhancement, Cdk2 R122C first. As an answer, provide the labels arranged in the order called for. E, C, B, D, A
(E: 0, C: 0.1738, B: 0.311, D: 0.4684, A: 0.7287)

a = C=CC(=O)N1CCCC1CC1CC2CCC1C2 (centres unmarked)
b = C=CC(=O)N(CC(=O)N1CCCC1)CC1CCCO1 (centres unmarked)
Field: lower recorded Rate enhancement, Cdk2 R122C (choose a or b ) Which one? Tell me its label. b

a = C=CC(=O)NC1(c2noc(C3CC3)n2)CCCC1
b = C=CC(=O)Nc1cccc(C(F)(F)F)c1 [BN-80]
Which shows the larger Rate enhancement, Cdk2 R122C value: a or b ? Refer to your chosen entry by its label in the reply. b
(b: 0.5528, a: 0.2302)

I = C=CC(=O)N1CCN(C(=O)OC(C)(C)C)CC1
II = C=CC(=O)NC1(C(N)=O)CCCCC1
Returns: the argument ( I or II ) having the larger Rate enhancement, Cdk2 R122C. Provide the label of your selected option as the answer. II

I = C=CC(=O)N1CCN(c2cccc3cccnc23)CC1
II = C=CC(=O)NC(C)c1ccc2c(c1)OCO2 (centres unmarked)
III = C=CC(=O)N1CCC2(CCCN(Cc3ccccc3)C2)C1 (centres unmarked)
IV = C=CC(=O)Nc1ccccc1C(=O)c1ccccc1
V = C=CC(=O)NCCNC(=O)C1CCCN1S(=O)(=O)c1ccccc1 (centres unmarked)
Rank the items in ascending order with respect to Rate enhancement, Cdk2 R122C. Quick reminder: the answer is the labels in the order asked. V, III, II, I, IV
(V: 0, III: 0.2386, II: 0.3414, I: 0.6879, IV: 0.9845)

====

# Experimental target: Cdk2(S181C) (C177A) (Homo sapiens, UniProt P24941, C177A/S181C)
# Construct: poly-histidine; made in house; host or cells: E. coli
# Test description: Kinetic thiol consumption assay with Cdk2 mutant S181C
# Assay type: binding
# Condition info: Protein: Cdk2; cysteine position S181C; additional mutation C177A; in h^-1
Measurement type: Rate constant with Cdk2 S181C

In the examples that follow, each entry is paired with its recorded Rate constant with Cdk2 S181C.
Compound	Rate constant with Cdk2 S181C
C=CC(=O)NC1C[C@@H](C(=C)C)CC=C1C (stereo partly drawn)	0.002194
O=C(CCl)N1CCCCCC1	0.01298

A = C=CC(=O)N1CCCN(Cc2noc(C3CC3)n2)CC1
B = C=CC(=O)N1CCCC(N2C(=O)CC3(CCCC3)C2=O)C1 (stereo not drawn)
C = C=CC(=O)NCc1ccc(F)cc1
D = C=CC(=O)Nc1sc2c(c1C(=O)NC1CC1)CCC2
# rank_down: sort by Rate constant with Cdk2 S181C, max first Please express your ranking as an ordered list of the labels. D, A, B, C
(D: 0.2049, A: 0.04575, B: 0.002114, C: 1.74E−14)

====

# Experimental target: human cyclin-dependent kinase 2 (Cdk2) (Homo sapiens, UniProt P24941)
# Construct: poly-histidine; made in house; host or cells: E. coli
# Test description: Kinetic thiol consumption assay with wild type Cdk2 (C177)
# Assay type: binding
# Condition info: Protein: Cdk2; cysteine position WT; in h^-1
# Text: A library of 120 acrylamides was screened against a) human cyclin-dependent kinase 2 (Cdk2, which contains one surface exposed cysteine residue—C177), prepared by cloning cDNA into the pRSETA bacterial expression vector to generate a poly-histidine tagged Cdk2 fusion that was purified from E. coli using standard techniques, and b) a model thiol (specific details are given below). […] Fluorescence measurements were normalized against a DMSO/thiol only control and plotted against time. […]
Measurement type: Rate constant with Cdk2 WT

I = C=CC(=O)Nc1cccc(-c2cc3ccccc3[nH]2)c1
II = C=CC(=O)NCCN1CCOCC1
III = C=CC(=O)Nc1[nH]nc(C2CC2)c1-c1ccc2c(c1)OCO2
IV = C=CC(=O)NCc1ccc(OC)cc1
V = C=CC(=O)NCc1ccc(C(=O)OC)cc1
Sort key: Rate constant with Cdk2 WT. Order: high to low. Scope: items listed above. Put the labels in the order asked and list them. III, I, II, IV, V
(III: 1.146, I: 0.01063, II: 0.005514, IV: 0.002998, V: 0.001861)

I = C=CC(=O)N1CCN(c2cc(N3CCOCC3)ncn2)CC1
II = C=CC(=O)NCCc1c(-c2ccccn2)[nH]c2ccc(F)cc12
III = C=CC(=O)NCCNC(=O)C1CCCN1S(=O)(=O)c1ccccc1 (stereo not drawn)
IV = C=CC(=O)N1CCCc2cc(C(=O)OC)ccc21
V = C=CC(=O)N1CC(Cc2ccccc2)C1
Rank ascending by Rate constant with Cdk2 WT. The reply should contain the labels ordered as requested. III, II, I, V, IV

P = C=CC(=O)N1CCCC1c1ccc(OC)cc1 (stereo not drawn)
Q = C=CC(=O)N1CC2CC2C1 (stereo not drawn)
Which numeric Rate constant with Cdk2 WT is bigger, that of P or that of Q ? Output the label that corresponds to your choice. P

====

# Experimental target: human cyclin-dependent kinase 2 (Cdk2) (Homo sapiens, UniProt P24941)
# Construct: poly-histidine; made in house; host or cells: E. coli
# Test description: Kinetic thiol consumption assay with wild type Cdk2 (C177)
# Format: binding
# Condition info: model thiol Cdk2[C177A, F80C, K278C]
Measurement type: k(Cdk2)/k(Cdk2_mut) rate enhancement

Below, each entry is followed by its recorded k(Cdk2)/k(Cdk2_mut) rate enhancement result.
Compound	Experimental target	k(Cdk2)/k(Cdk2_mut) rate enhancement
C=CC(=O)Nc1ccccc1C(=O)c1ccccc1	human cyclin-dependent kinase 2 (Cdk2) (Homo sapiens, UniProt P24941)	0.3351
C=CC(=O)NCCc1c(-c2ccccn2)[nH]c2ccc(F)cc12	human cyclin-dependent kinase 2 (Cdk2) (Homo sapiens, UniProt P24941)	0.5247
C=CC(=O)NCC1CCCN1S(=O)(=O)c1ccc(C(=O)O)cc1 (stereo not drawn)	human cyclin-dependent kinase 2 (Cdk2) (Homo sapiens, UniProt P24941)	1.879
C=CC(=O)NC1(c2noc(C3CC3)n2)CCCC1	human cyclin-dependent kinase 2 (Cdk2) (Homo sapiens, UniProt P24941)	1.749

P = C=CC(=O)N1CCOC2(CCCCC2)C1
Q = C=CC(=O)N1CC2CCN(Cc3ccccc3)C2C1 (stereo not drawn)
Which of the two items, P and Q , has the greater recorded k(Cdk2)/k(Cdk2_mut) rate enhancement? Choose, then provide that item's label. P
